Test system: Acanthamoeba castellanii Neff trophozoites
Method: In vitro activity against Acanthamoeba trophozoites (alamarBlue colorimetric assay)
Format: cell-based, Acanthamoeba castellanii Neff (ATCC 30010)
Condition info: trophozoites, 96 h, 26 °C, read-out: IC50 against Acanthamoeba castellanii Neff
Measurement kind: pIC50
Give bare numbers, as −log10 of the molar value.

Examples with answers:
{"Molecule": "C[C@@H](c1ncncc1F)[C@](O)(Cn1cncn1)c1ccc(F)cc1F [Voriconazole, voriconazole, reference compound]", "Measured target": "Acanthamoeba castellanii Neff trophozoites", "Data value": 6.03}
{"Molecule": "CC(C)(O)[C@H]1CC[C@](C)([C@@H]2CC[C@](CI)([C@H]3CC[C@H]4O[C@@H]([C@]5(C)CC[C@@H](Br)C(C)(C)O5)CC[C@]4(C)O3)O2)O1", "Measured target": "Acanthamoeba castellanii Neff trophozoites", "Data value": 4.26}
{"Molecule": "C=C(CC[C@H](O)[C@@]1(C)CC[C@H](C(C)(C)O)O1)[C@H]1CC[C@H]2O[C@@H]([C@]3(C)CC[C@@H](Br)C(C)(C)O3)CC[C@]2(C)O1 [Compound 1, dehydrothyrsiferol]", "Measured target": "Acanthamoeba castellanii Neff trophozoites", "Data value": 4.89}
{"Molecule": "C=C(CC[C@H](O)[C@@]1(C)CC[C@@H](O)C(C)(C)O1)[C@H]1CC[C@H]2O[C@@H]([C@]3(C)CC[C@@H](Br)C(C)(C)O3)CC[C@]2(C)O1", "Measured target": "Acanthamoeba castellanii Neff trophozoites", "Data value": 5.28}
{"Molecule": "CC(C)(O)[C@H]1CC[C@](C)([C@@H]2CC[C@@](CI)([C@H]3CC[C@H]4O[C@@H]([C@]5(C)CC[C@@H](Br)C(C)(C)O5)CC[C@]4(C)O3)O2)O1", "Measured target": "Acanthamoeba castellanii Neff trophozoites", "Data value": 4.30}

Please look at the items below and tell me pIC50 for each one, in order.
1. C=C(CCC(=O)[C@@]1(C)CC[C@H](C(C)(C)O)O1)[C@H]1CC[C@H]2O[C@@H]([C@]3(C)CC[C@@H](Br)C(C)(C)O3)CC[C@]2(C)O1 [Compound 13, 18-ketodehydrothyrsiferol]
2. CC(C)(O)[C@H]1CC[C@](C)([C@@H](O)CCC(O)(CO)[C@H]2CC[C@H]3O[C@@H]([C@]4(C)CC[C@@H](Br)C(C)(C)O4)CC[C@]3(C)O2)O1 (some centres unmarked) [Compound 16, 28-hydroxythyrsiferol]
3. CC1(C)O[C@](C)([C@H]2CC[C@]3(C)OC(=O)CC[C@H]3O2)CC[C@H]1Br
4. CC(C)(O)C1CCC(C)(C2CCC(C)(C3CCC(C(C)(O)CCC4OC(C)(C)C5CCC4(C)O5)O3)O2)O1 (centres unmarked)
5. C=C(C)[C@@H]1CC[C@@](C)([C@H]2CC[C@]3(C)O[C@@H](C(=C)CC[C@H](O)[C@@]4(C)CC[C@H](C(C)(C)O)O4)CC[C@H]3O2)O1 [Compound 5, 1,2-dehydropseudodehydrothyrsiferol]
6. CC(C)(O)[C@H]1CC[C@](C)([C@@H]2CC[C@](CO)([C@H]3CC[C@H]4O[C@@H]([C@]5(C)CC[C@@H](Br)C(C)(C)O5)CC[C@]4(C)O3)O2)O1 [Compound 9, 28-hydroxysaiyacenol B]
7. C=C(CC[C@H](OS(=O)(=O)O)[C@@]1(C)CC[C@H](C(C)(C)O)O1)[C@H]1CC[C@H]2O[C@@H]([C@]3(C)CC[C@@H](Br)C(C)(C)O3)CC[C@]2(C)O1 [Compound 12, 18-sulphatedehydrothyrsiferol]

1: 4.54; 2: 3.98; 3: 4.32; 4: 3.99; 5: 3.98; 6: 4.22; 7: 4.36

Please look at the items below and tell me pIC50 for each one, in order.
1. C[C@@H]1[C@H](O)[C@@H](C)/C=C/C=C/C=C/C=C/C=C/C=C/C=C/[C@H](O[C@@H]2O[C@H](C)[C@@H](O)[C@H](N)[C@@H]2O)C[C@@H]2O[C@](O)(C[C@@H](O)C[C@@H](O)[C@H](O)CC[C@@H](O)C[C@@H](O)CC(=O)O[C@H]1C)C[C@H](O)[C@H]2C(=O)O [Amphotericin B, amphotericin B, reference compound]
2. CC(C)(O)[C@H]1CC[C@](C)([C@@H]2CC[C@@](CO)([C@H]3CC[C@H]4O[C@@H]([C@]5(C)CC[C@@H](Br)C(C)(C)O5)CC[C@]4(C)O3)O2)O1 [Compound 8, 28-hydroxysaiyacenol A]
3. CC(C)(O)[C@H]1CC[C@](C)([C@@H]2CC[C@](C)([C@H]3CC[C@H]4O[C@@H]([C@]5(C)CC[C@@H](Br)C(C)(C)O5)CC[C@]4(C)O3)O2)O1
4. C=C(CC[C@H](O)[C@@]1(C)CC[C@](O)(C(C)(C)O)O1)[C@H]1CC[C@H]2O[C@@H]([C@]3(C)CC[C@@H](Br)C(C)(C)O3)CC[C@]2(C)O1 [Compound 4, 22-hydroxydehydrothyrsiferol]
5. CC(C)(O)[C@H]1CC[C@](C)([C@@H]2CC[C@@](C)([C@H]3CC[C@H]4O[C@@H]([C@]5(C)CC[C@@H](Br)C(C)(C)O5)CC[C@]4(C)O3)O2)O1

1. 4.40
2. 4.18
3. 4.11
4. 4.77
5. 4.26
